VALUE_TYPE: melting point (°C)
All answers are understood in °C, so give the number only.

- COMPOUND: "COc1cc(Nc2cccn3c(OC)c(-c4ccc(F)cc4)nc23)ccc1-n1cnc(C)n1 [Compound 132]"
  VALUE_TYPE: "melting point"
  UNIT: "°C"
  EXPERIMENTAL_RESULT: 165.1
- COMPOUND: "COc1cc(Nc2cccn3c(C)c(-c4c(F)cccc4F)nc23)ccc1-n1cnc(C)c1 [Compound 27]"
  VALUE_TYPE: "melting point"
  UNIT: "°C"
  EXPERIMENTAL_RESULT: 198.2

Prompt: Data request, read-out melting point, for COc1cc(Nc2cccn3cc(-c4ccc(F)cc4)nc23)ccc1-n1cnc(C)c1 [Compound 1]
Response: 209.2

Prompt: Name the recorded melting point for Cc1ccc(C(F)(F)F)cc1-c1cn2cccc(Nc3ccc(-n4ncnc4C)c(F)c3)c2n1 [Compound 130] .
Response: 210

Prompt: So what's the measured melting point for this one? COc1cc(Nc2cccn3c(C)c(-c4ccccc4Cl)nc23)ccc1-n1cnc(C)c1 [Compound 15]
Response: 204

Prompt: What melting point value was documented for this compound, COc1cc(Nc2cccn3c(Cl)c(-c4ccc(F)cc4)nc23)ccc1-n1cnc(C)c1 [Compound 2] ?
Response: 168.9

Prompt: Could you tell me which melting point is on file for COc1cc(Nc2cccn3cc(-c4ccc(C#N)cc4)nc23)ccc1-n1cnc(C)c1 [Compound 31] ?
Response: 193.4

Prompt: Which value of melting point has been reported for COc1cc(Nc2cccn3c(C)c(-c4ccc(CC(C)C)cc4)nc23)ccc1-n1cnc(C)c1 [Compound 38] in the records?
Response: 224.6

Prompt: # get_value(readout='melting point', item= COCCc1c(-c2ccc(F)cc2)nc2c(Nc3ccc(-n4cnc(C)n4)c(OC)c3)cccn12 [Compound 127] )
Response: 149.5
